Entry source: patent EP0299434B1

# assayRemarks: solution pKa (pH at which the solubility versus pH curve changes slope)
# Type: physicochemical
# experimentalSetup: ion exchange eluate redissolved with ammonium hydroxide, 39°C; ammonia stripping
reportedProperty: pKa

molecule: N[C@@H](Cc1c[nH]c2ccccc12)C(=O)O [tryptophan]
result: 8.8

====

# assayRemarks: solution pKa (pH at which the solubility versus pH curve changes slope)
# Format: physicochemical
# experimentalSetup: saturation curve of Fig. 1

molecule: N[C@@H](Cc1c[nH]c2ccccc12)C(=O)O [tryptophan]
pKa: ~9.2

====

# assayRemarks: solution pKa (pH at which the solubility versus pH curve changes slope)
# Type: physicochemical
# experimentalSetup: ion exchange eluate concentrated by reverse osmosis, 37°C; ion exchange eluate concentrated by reverse osmosis (Example 4)
reportedProperty: pKa

compound: N[C@@H](Cc1c[nH]c2ccccc12)C(=O)O [tryptophan]
result: ~8.9
